Molecular target: T1, biotinylated CD32bECDHis (human, UniProt P31994 43-223, limits assumed, biotinylated (sites not given))
T1 sequence (looked up): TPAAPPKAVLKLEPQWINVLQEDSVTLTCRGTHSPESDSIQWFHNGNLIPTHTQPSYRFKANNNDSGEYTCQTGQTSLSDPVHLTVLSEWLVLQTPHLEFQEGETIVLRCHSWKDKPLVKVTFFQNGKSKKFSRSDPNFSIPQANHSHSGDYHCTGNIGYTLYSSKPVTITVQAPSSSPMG
Assay: competition ELISA, competitor 053
RECORDED_ENDPOINT: % residual binding (%)
Enter your answer as a number in %; do not include the unit.

Answered examples (4):
- BINDER: "Antibody 024 (antibody, V domains shown, also called HuMab 024) VH: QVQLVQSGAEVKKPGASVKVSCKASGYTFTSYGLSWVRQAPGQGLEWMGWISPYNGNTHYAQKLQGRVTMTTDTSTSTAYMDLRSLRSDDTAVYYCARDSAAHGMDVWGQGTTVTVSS VL: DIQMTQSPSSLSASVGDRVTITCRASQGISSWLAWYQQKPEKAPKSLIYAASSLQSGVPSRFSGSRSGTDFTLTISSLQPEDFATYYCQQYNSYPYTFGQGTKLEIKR"
  % residual binding / %: 69
- BINDER: "Antibody 053 (antibody, human IgG1, V domains shown, Human antibody; also called HuMab 053) VH: QVQLVESGGGVVQPGRSLRLSCAVSGFTFRSYGMHWVRQAPGKGLEWVAVIWYDGSIKYYADSVKGRFTISRDNSKNTLYLQMNSLRAEDTAVYFCAREGGRDAFDIWGQGTMVTVSS VL: AVQLTQSPSSLSASVGDRVTITCRASQGISSALAWYQQKPGKAPKLLIYDASSLESGVPSRFSGSGSGTDFTLTISSLQPEDFATYCCQQFNSYPHTFGGGTKVEIKR"
  % residual binding / %: 40
- BINDER: "Antibody 026 (antibody, V domains shown, Human antibody; also called HuMab 026) VH: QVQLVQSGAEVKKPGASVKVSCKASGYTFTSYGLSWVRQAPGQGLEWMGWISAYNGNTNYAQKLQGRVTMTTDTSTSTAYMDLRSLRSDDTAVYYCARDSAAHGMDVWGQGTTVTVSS VL: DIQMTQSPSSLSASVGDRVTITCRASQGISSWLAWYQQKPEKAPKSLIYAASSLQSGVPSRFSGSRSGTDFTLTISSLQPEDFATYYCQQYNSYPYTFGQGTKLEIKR"
  % residual binding / %: 29
- BINDER: "Antibody 022 (antibody, V domains shown, also called HuMab 022) VH: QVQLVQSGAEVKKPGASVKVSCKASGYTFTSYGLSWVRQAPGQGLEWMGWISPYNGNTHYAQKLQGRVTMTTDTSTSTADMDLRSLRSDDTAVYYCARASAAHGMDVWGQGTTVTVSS VL: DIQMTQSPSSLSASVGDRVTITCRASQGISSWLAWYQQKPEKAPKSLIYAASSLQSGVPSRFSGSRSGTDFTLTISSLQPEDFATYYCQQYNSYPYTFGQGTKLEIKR"
  % residual binding / %: 64

Pending binder:
Exercise: Which % residual binding is listed for Antibody 028 (antibody, V domains shown, List 1 gives no VL for antibody 028; The VL is therefore uncertain; also called HuMab 028) VH: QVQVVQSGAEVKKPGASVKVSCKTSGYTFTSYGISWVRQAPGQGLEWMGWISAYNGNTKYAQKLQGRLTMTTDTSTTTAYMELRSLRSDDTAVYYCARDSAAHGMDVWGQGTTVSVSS VL: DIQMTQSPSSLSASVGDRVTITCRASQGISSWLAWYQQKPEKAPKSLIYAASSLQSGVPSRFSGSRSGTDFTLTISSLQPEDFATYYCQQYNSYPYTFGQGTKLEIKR ?
Key: 51
